Listed here: items and their measured DC50.
test-system: ERα protein (HiBiT-tagged) in ESR1_HiBiT KI MCF7 cells (Homo sapiens)
assay-overview: Nano Glo HiBiT Lytic Degradation Assay
Format: cell-based
condition-parameters: 6 hours with compound, 14-point dose response 1:3, bell-shape curve fit, half-maximal effect of first Hill model, read-out: MCF7 ESR1 HiBiT - (DC50)
Experimental: Selected compounds of the present disclosure were tested in a Nano Glo HiBiT Lytic Degradation Assay to measure the level of ERα protein degradation in MCF7 cells. Cell culture: ESR1_HiBiT KI MCF7 cells were maintained in growth media without antibiotics. […] Cell seeding: Cells were counted using a Vi-Cell and seeded in a 384-well flat-bottom microplate (cell culture-treated) at 4000 cells/well in 25 μL of growth medium using a BioTek MultiFlo Multimode Dispenser. […]
Express the result in nM but write the number alone.

Completed entries (count: 7):
O=C1CC[C@H](N2Cc3cc(N4CCN(CC5CCN(c6ccc([C@H]7c8ccc(O)cc8CO[C@H]7C7CCC7)cc6)CC5)CC4)ccc3C2=O)C(=O)N1	4
C[C@H]1CCc2cc(O)ccc2[C@H]1c1ccc(N2CCC(CN3CCN(c4ccc5c(c4)CN([C@H]4CCC(=O)NC4=O)C5=O)CC3)CC2)cc1	1
Cn1nc(C2CCC(=O)NC2=O)c2ccc(N3CCN(CC4CCN(c5ccc([C@@H]6c7ccc(O)cc7C(F)(F)C[C@@H]6c6ccccc6)cc5)CC4)CC3)cc21 (single isomer, unassigned) [Compound I-297]	0.74
C[C@H]1C[C@@H](CN2CCN(c3ccc4c(c3)CN(C3CCC(=O)NC3=O)C4=O)CC2)CCN1c1ccc([C@@H]2c3ccc(O)cc3CC[C@@H]2c2ccccc2)cc1 (single isomer, unassigned)	6
Cc1c(F)cccc1[C@H]1OCc2cc(O)ccc2[C@H]1c1ccc(N2CCC(CN3CCN(c4ccc5c(c4)CN([C@H]4CCC(=O)NC4=O)C5=O)CC3)CC2)cc1 (single isomer, unassigned)	0.37
C[C@]1(C2CCCCC2)CCc2cc(O)ccc2[C@@H]1c1ccc(N2CCC(CN3CCN(c4ccc5c(c4)CN([C@H]4CCC(=O)NC4=O)C5=O)CC3)CC2)cc1	1990
Cc1ccc([C@H]2CCc3cc(O)ccc3[C@H]2c2ccc(N3CCC(CN4CCN(c5ccc6c(c5)CN([C@H]5CCC(=O)NC5=O)C6=O)CC4)CC3)cc2)cc1 (single isomer, unassigned)	0.93

Briefly, DC50 measured for Cc1ccccc1[C@H]1CCc2cc(O)ccc2[C@H]1c1ccc(N2CCC(CN3CCN(c4ccc5c(c4)CN([C@H]4CCC(=O)NC4=O)C5=O)CC3)CC2)cc1 (single isomer, unassigned) : 40

----------
test-system: ERα protein (HiBiT-tagged) in ESR1_HiBiT KI MCF7 cells (Homo sapiens)
assay-overview: Nano Glo HiBiT Lytic Degradation Assay
Format: cell-based
condition-parameters: 6 hours with compound, 14-point dose response 1:3, bell-shape curve fit, half-maximal effect of first Hill model, read-out: MCF7 ESR1 HiBiT - (DC50)
value-kind: DC50 (nM)
Express the result in nM but write the number alone.

C[C@@]1(C2CCCCC2)OCc2cc(O)ccc2[C@H]1c1ccc(N2CCC(CN3CCN(c4ccc5c(c4)CN([C@H]4CCC(=O)NC4=O)C5=O)CC3)CC2)cc1 [Compound I-258]	1
C[C@@H]1CN(CC2CCN(c3ccc([C@H]4c5ccc(O)cc5CC[C@H]4c4ccccc4)cc3)CC2)CCN1c1ccc2c(c1)CN([C@H]1CCC(=O)NC1=O)C2=O (single isomer, unassigned) [II-4]	1140
O=C1CC[C@H](N2Cc3cc(N4CCN(CC5CCN(c6ccc([C@H]7c8ccc(O)cc8CO[C@H]7c7ccc(C(F)(F)F)cc7)cc6)CC5)CC4)ccc3C2=O)C(=O)N1 (single isomer, unassigned) [Compound I-56]	7.75
O=C1CC[C@H](N2Cc3cc(N4CCN(CC5CCN(c6ccc([C@H]7c8ccc(O)cc8CO[C@@]78CCCc7ccccc78)cc6)CC5)CC4)ccc3C2=O)C(=O)N1 (single isomer, unassigned) [Compound I-273]	6
COc1cccc([C@H]2OCc3cc(O)ccc3[C@H]2c2ccc(N3CCC(CN4CCN(c5ccc6c(c5)CN([C@H]5CCC(=O)NC5=O)C6=O)CC4)CC3)cc2)c1 [Compound I-373]	0.78
O=C1CC[C@H](N2Cc3cc(N4CCN(CC5CCN(c6ccc(C7c8ccc(O)cc8CCC7C7CCCCC7)cn6)CC5)CC4)ccc3C2=O)C(=O)N1 (stereo in doubt) [Compound I-155]	1
O=C1CC[C@H](N2Cc3cc(N4CCN(CC5CCN(c6ccc([C@@H]7c8ccc(O)cc8C(F)(F)C[C@@H]7CC7CCCC7)cc6)CC5)CC4)ccc3C2=O)C(=O)N1 [Compound I-196]	2

Now turn to the next compound.
Briefly, DC50 measured for Cc1ccc([C@H]2OCc3cc(O)ccc3[C@H]2c2ccc(N3CCC(CN4CCN(c5ccc6c(c5)CN([C@H]5CCC(=O)NC5=O)C6=O)CC4)CC3)cc2)cc1 [Compound I-354] : 0.3

----------
test-system: ERα protein (HiBiT-tagged) in ESR1_HiBiT KI MCF7 cells (Homo sapiens, UniProt P03372)
Sequence (P03372 whole entry): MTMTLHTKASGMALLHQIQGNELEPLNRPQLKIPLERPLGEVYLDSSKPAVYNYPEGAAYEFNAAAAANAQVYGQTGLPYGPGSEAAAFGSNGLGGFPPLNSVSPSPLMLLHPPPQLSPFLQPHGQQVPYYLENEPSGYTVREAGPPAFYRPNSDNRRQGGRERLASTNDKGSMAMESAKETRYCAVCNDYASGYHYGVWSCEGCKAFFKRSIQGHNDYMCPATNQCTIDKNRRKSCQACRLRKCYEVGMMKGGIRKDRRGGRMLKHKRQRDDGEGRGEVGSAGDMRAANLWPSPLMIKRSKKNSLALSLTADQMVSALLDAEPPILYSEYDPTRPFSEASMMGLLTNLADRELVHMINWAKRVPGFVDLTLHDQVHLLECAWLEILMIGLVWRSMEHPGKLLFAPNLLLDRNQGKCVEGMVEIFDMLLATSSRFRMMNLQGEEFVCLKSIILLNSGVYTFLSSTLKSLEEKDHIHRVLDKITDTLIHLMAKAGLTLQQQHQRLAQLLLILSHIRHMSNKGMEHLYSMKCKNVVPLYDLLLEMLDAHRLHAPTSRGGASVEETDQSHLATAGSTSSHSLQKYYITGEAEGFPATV
assay-overview: Nano Glo HiBiT Lytic Degradation Assay
Format: cell-based
condition-parameters: 6 hours with compound, 14-point dose response 1:3, bell-shape curve fit, half-maximal effect of first Hill model, read-out: MCF7 ESR1 HiBiT - (DC50)
DC50 class ranges: bin 1: < 1 nM; bin 2: ≥ 1 nM and < 20 nM; bin 3: ≥ 20 nM

Check out these entries, answers already filled in.
Cn1c(=O)n([C@H]2CCC(=O)NC2=O)c2ccc(N3CCN(CC4CCN(c5ccc([C@@H]6c7ccc(O)cc7CC[C@@H]6c6ccccc6)cc5)CC4)CC3)cc21 (single isomer, unassigned) [Compound I-275]	bin 1
CC(C)C[C@@H]1OCc2cc(O)ccc2[C@@H]1c1ccc(N2CCC(CN3CCN(c4ccc5c(c4)CN([C@H]4CCC(=O)NC4=O)C5=O)CC3)CC2)cc1 (single isomer, unassigned) [Compound I-221]	bin 3
O=C1CC[C@H](N2Cc3cc(N4CCN(CC5CCN(c6ccc([C@@H]7c8ccc(O)cc8C(F)(F)C[C@@H]7c7ccccc7)cn6)CC5)CC4)ccc3C2=O)C(=O)N1 [Compound I-202]	bin 1
COc1cc(N2CCC(CN3CCN(c4ccc5c(c4)CN([C@H]4CCC(=O)NC4=O)C5=O)CC3)CC2)c(-c2ccccc2)cc1[C@@H]1CCC(F)(F)c2cc(O)ccc21 [Compound I-405]	bin 3
Cc1c(F)cccc1[C@@H]1OCc2cc(O)ccc2[C@@H]1c1ccc(N2CCC(CN3CCN(c4ccc5c(c4)CN([C@H]4CCC(=O)NC4=O)C5=O)CC3)CC2)cc1 (single isomer, unassigned) [Compound I-380]	bin 3

-- ask Hi there! Could you help me figure out the category for O=C1CCC(N2Cc3cc(N4CCN(CC5CCN(c6c(F)cc([C@H]7c8ccc(O)cc8CC[C@H]7C7CCCCC7)cc6F)CC5)CC4)ccc3C2=O)C(=O)N1 (stereo in doubt) [Compound I-160] please?
-- reply bin 3

-- ask Hi there! Could you help me figure out the category for CC(C)[C@@H]1OCc2cc(O)ccc2[C@@H]1c1ccc(N2CCC(CN3CCN(c4ccc5c(c4)CN([C@H]4CCC(=O)NC4=O)C5=O)CC3)CC2)cc1 (single isomer, unassigned) [Compound I-226] please?
-- reply bin 3

-- ask Hi there! Could you help me figure out the category for CC(C)C[C@@H]1OCc2cc(O)ccc2[C@H]1c1ccc(N2CCC(CN3CCN(c4ccc5c(c4)CN([C@H]4CCC(=O)NC4=O)C5=O)CC3)CC2)cc1 (single isomer, unassigned) [Compound I-222] please?
-- reply bin 1

-- ask Hi there! Could you help me figure out the category for O=C1CC[C@H](N2Cc3cc(N4CCN(CC5CCN(c6ccc([C@H]7c8ccc(O)cc8CO[C@H]7c7ccccc7)cc6)CC5)CC4)ccc3C2=O)C(=O)N1 [Compound I-4] please?
-- reply bin 3

-- ask Hi there! Could you help me figure out the category for Cn1nc(C2CCC(=O)NC2=O)c2cccc(N3CCN(CC4CCN(c5ccc([C@@H]6c7ccc(O)cc7CC[C@@H]6c6ccccc6)cc5)CC4)CC3)c21 (stereo partly shown) [Compound I-189] please?
-- reply bin 2

-- ask Hi there! Could you help me figure out the category for O=C1CCC(N2Cc3cc(N4CCN(CC5CCN(c6ccc([C@@H]7c8ccc(O)cc8CC[C@@H]7c7cccnc7)cc6)CC5)CC4)ccc3C2=O)C(=O)N1 (single isomer, unassigned) [Compound I-107] please?
-- reply bin 3

-- ask Hi there! Could you help me figure out the category for O=C1CCC(c2ccc(N3CCC4(CCN(CC5CCN(c6ccc([C@@H]7c8ccc(O)cc8C(F)(F)C[C@@H]7c7ccccc7)cc6)CC5)C4)C3)cc2)C(=O)N1 (single isomer, unassigned) [Compound I-282] please?
-- reply bin 3

FYI, the data here is from patent US20250388565A1.
